- MEASURED ON: bovine serum albumin (BSA) (Bos taurus)
- Construct: purchased Sigma-Aldrich (MO, USA)
- ASSAY EXPLANATION: Protein precipitation capacity (PPC), turbidimetric well-plate reader assay with BSA, log-normal dose–response model
- Assay type: biochemical
- RUN CONDITIONS: BSA 0.1 mM; SE in parentheses
MEASURED METRIC: ED90 (mM)

Past entries and their recorded results:
COMPOUND | ASSAY RESULT
Oc1ccc([C@H]2Oc3c(c(O)cc(O)c3C(c3cc(O)c(O)c(O)c3)c3c(O)cc(O)c4c3O[C@H](c3ccc(O)c(O)c3)[C@H](O)C4)C[C@H]2O)cc1O | 2.41 (0.05) mM
Oc1ccc([C@H]2Oc3c(c(O)cc(O)c3C(c3ccco3)c3c(O)cc(O)c4c3O[C@H](c3ccc(O)c(O)c3)[C@@H](O)C4)C[C@@H]2O)cc1O | 2.58 (0.06) mM
Oc1ccc([C@H]2Oc3c(Cc4c(O)cc(O)c5c4O[C@H](c4ccc(O)c(O)c4)[C@H](O)C5)c(O)cc(O)c3C[C@H]2O)cc1O [Compound 2, Epicatechin–methylene–epicatechin] | 3.45 (0.10) mM
Oc1ccc([C@H]2Oc3c(c(O)cc(O)c3C(c3ccco3)c3c(O)cc(O)c4c3O[C@H](c3ccc(O)c(O)c3)[C@H](O)C4)C[C@H]2O)cc1O [Compound 6, Epicatechin–furanmethine–epicatechin] | 3.32 (0.09) mM

Attention now shifts to the item below.
// ED90 (mM) value for Oc1ccc([C@H]2Oc3c(c(O)cc(O)c3C(c3cc(O)c(O)c(O)c3)c3c(O)cc(O)c4c3O[C@H](c3ccc(O)c(O)c3)[C@@H](O)C4)C[C@@H]2O)cc1O : 2.61 (0.06) mM

----------
- ASSAY EXPLANATION: Octanol–water partition, shake-flask method
- Assay type: physicochemical
- RUN CONDITIONS: n-octanol/water; tentative values, experiment shorter than two hours because the compounds degraded; read-out: log P (log10KOW)
MEASURED METRIC: logP
Lab note: record just the number, no unit beside it.

logP measured on Oc1ccc([C@H]2Oc3c(c(O)cc(O)c3C(c3cc(O)c(O)c(O)c3)c3c(O)cc(O)c4c3O[C@H](c3ccc(O)c(O)c3)[C@@H](O)C4)C[C@@H]2O)cc1O = -0.85

Form: compound = Oc1ccc([C@H]2Oc3c(c(O)cc(O)c3C(c3cc(O)c(O)c(O)c3)c3c(O)cc(O)c4c3O[C@H](c3ccc(O)c(O)c3)[C@H](O)C4)C[C@H]2O)cc1O ; logP = -1.18

----------
Listed next: entries and their corresponding slope.
- MEASURED ON: bovine serum albumin (BSA) (Bos taurus, UniProt P02769)
- Construct: purchased Sigma-Aldrich (MO, USA)
- Sequence (P02769 25-607): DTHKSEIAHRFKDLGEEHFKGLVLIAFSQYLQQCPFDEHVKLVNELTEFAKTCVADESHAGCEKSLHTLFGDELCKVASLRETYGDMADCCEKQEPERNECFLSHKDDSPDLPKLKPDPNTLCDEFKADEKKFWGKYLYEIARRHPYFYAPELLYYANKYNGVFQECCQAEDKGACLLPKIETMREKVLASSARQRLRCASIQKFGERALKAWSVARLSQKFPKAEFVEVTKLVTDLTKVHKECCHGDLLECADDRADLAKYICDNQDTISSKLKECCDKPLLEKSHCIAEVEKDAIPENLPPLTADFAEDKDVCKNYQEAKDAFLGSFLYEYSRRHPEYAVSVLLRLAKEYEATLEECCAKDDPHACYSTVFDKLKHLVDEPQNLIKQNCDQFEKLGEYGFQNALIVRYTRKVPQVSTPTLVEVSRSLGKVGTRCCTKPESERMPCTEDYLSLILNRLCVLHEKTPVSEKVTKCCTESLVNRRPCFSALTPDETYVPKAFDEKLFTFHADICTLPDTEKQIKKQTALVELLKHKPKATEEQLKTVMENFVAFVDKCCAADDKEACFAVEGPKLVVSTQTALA
- ASSAY EXPLANATION: Protein precipitation capacity (PPC), turbidimetric well-plate reader assay with BSA, log-normal dose–response model
- Assay type: biochemical
- RUN CONDITIONS: slope parameter of log-normal dose–response model; SE in parentheses

MOLECULE | slope
Oc1ccc([C@H]2Oc3c(c(O)cc(O)c3C(c3ccco3)c3c(O)cc(O)c4c3O[C@H](c3ccc(O)c(O)c3)[C@@H](O)C4)C[C@@H]2O)cc1O [Compound 5, Catechin–furanmethine–catechin] | 2.08 (0.07)
Oc1ccc([C@H]2Oc3c(c(O)cc(O)c3C(c3ccco3)c3c(O)cc(O)c4c3O[C@H](c3ccc(O)c(O)c3)[C@H](O)C4)C[C@H]2O)cc1O [Compound 6, Epicatechin–furanmethine–epicatechin] | 2.15 (0.08)
O=C(O)C(c1c(O)cc(O)c2c1O[C@H](c1ccc(O)c(O)c1)[C@H](O)C2)c1c(O)cc(O)c2c1O[C@H](c1ccc(O)c(O)c1)[C@H](O)C2 [Compound 4, Epicatechin–carboxymethine–epicatechin] | 2.64 (0.11)

Reported slope for O=C(O)C(c1c(O)cc(O)c2c1O[C@H](c1ccc(O)c(O)c1)[C@@H](O)C2)c1c(O)cc(O)c2c1O[C@H](c1ccc(O)c(O)c1)[C@@H](O)C2 [Compound 3] was 2.57 (0.10)

The recorded slope for O=C(O[C@@H]1Cc2c(O)cc(O)cc2O[C@@H]1c1cc(O)c(O)c(O)c1)c1cc(O)c(O)c(O)c1 [Compound 14, Epigallocatechin-3-gallate, reference compound] is 1.88 (0.07)

Data point: Oc1ccc([C@H]2Oc3c(Cc4c(O)cc(O)c5c4O[C@H](c4ccc(O)c(O)c4)[C@H](O)C5)c(O)cc(O)c3C[C@H]2O)cc1O [Compound 2, Epicatechin–methylene–epicatechin] ; slope = 2.80 (0.13)
